System: OVCAR-8
Assay: NCI tumour cell line growth inhibition, 48 h
Calls of active or inactive are those of the source. Cut-off read from the data, not from the text of the source: active = GI50 up to about 1.1 µM and inactive = higher. Peptide text beside a SMILES is read from it. * marks the point of attachment. Cbz = O=C(OCc1ccccc1)*; Boc = CC(C)(C)OC(=O)*; OBn = c1ccc(CO*)cc1
readout.kind: GI50

molecule	readout.kind	result
COC(=O)C(CCCCNC(=O)OCc1ccccc1)NC(=O)C(CCC(=O)OCc1ccccc1)NC(=O)OC(C)(C)C (stereo not drawn) (Boc-Glu(OBn)-Lys(Cbz)-OMe; configuration not given here)	GI50	> 100 µM (inactive)
O=C(/C(=C\I)c1ccccc1)c1ccccc1	GI50	4.32 µM (inactive)
C/C(CC(=O)CCCC(=O)Nc1ccc(Cl)cc1Cl)=N/NC(=O)CC#N	GI50	> 100 µM (inactive)

src = ChEMBL document CHEMBL1201862
